Data origin: BindingDB's records for doi:10.1021/jm300025r

assay: Inhibition of CHK1 in human HT29 cells assessed as check point abrogation
pEC50: −log10 of the molar value.
recordedEndpoint: pEC50

[[record]]
recordsmiles = "NC(=O)Nc1cc(-c2cccc(Cl)c2)sc1C(=O)N[C@H]1CCCNC1"
quantitativeresult = 6.15

[[record]]
recordsmiles = "NC(=O)Nc1cc(-c2cc(F)cc(F)c2)sc1C(=O)N[C@H]1CCCNC1"
quantitativeresult = 5.60

[[record]]
recordsmiles = "NC(=O)Nc1sc(-c2ccc(F)cc2F)cc1C(=O)N[C@H]1CCCNC1"
quantitativeresult = 5.85

[[record]]
recordsmiles = "N#Cc1ccc(-c2cc(C(=O)N[C@H]3CCCNC3)c(NC(N)=O)s2)cc1"
quantitativeresult = 5.77

[[record]]
recordsmiles = "NC(=O)Nc1sc(-c2ccc(Cl)c(Cl)c2)cc1C(=O)N[C@H]1CCCNC1"
quantitativeresult = 5.24


[A] NC(=O)Nc1sc(-c2cc(F)cc(F)c2)cc1C(=O)N[C@H]1CCCNC1
[B] NC(=O)Nc1cc(-c2ccc(Cl)c(Cl)c2)sc1C(=O)N[C@H]1CCCNC1
I'd appreciate it if you could identify which of A and B has the greater pEC50. I would appreciate it if you answered with the label of your choice.
A
(A: 5.82, B: 5.24)

[1] NC(=O)Nc1sc(-c2ccccc2F)cc1C(=O)N[C@H]1CCCNC1
[2] NC(=O)Nc1cc(-c2ccccc2)sc1C(=O)N[C@H]1CCCNC1
Among 1 and 2 , whose measured pEC50 is the smaller figure? I would appreciate it if you answered with the label of your choice.
1
(1: 5.97, 2: 6.23)
